Values from PubChem BioAssay (EPA / NIEHS)

test: BSK_3C_VCAM1: BioMAP Diversity Plus: 3C Assay for Vascular cell adhesion molecule 1 (VCAM1) Biomarker Activity (AID 2282999); details: BioMAP 3C HUVEC, VCAM1 ELISA, cytokine-stimulated; actives raise or lower the signal
Active and inactive are the calls of the source. How the source made its calls: active means hit-call score of the fitted dose curve at least 0.9, where 1 is the maximum; inactive means score below 0.9.
Write down one outcome, taken from active, inactive

molecule: CCCCCCCCCCCCc1ccccc1
label class: inactive
//
molecule: CC(C)c1cccc(C(C)C)c1N1C(=O)c2ccc(O)cc2C1=O
label class: active
//
molecule: C1=CCCC=CCCC=CCC1
label class: inactive
//
molecule: CC(C)=CCCC(C)=CC=O
label class: inactive
//
molecule: C[C@](N)(Cc1ccc(O)c(O)c1)C(=O)O
label class: inactive
//
molecule: Nc1cccc(N)c1
label class: inactive
//
molecule: NC(=O)NO
label class: inactive
//
molecule: COCCOCCOCCOC
label class: inactive

For O=C1CCCCCN1 , which call appears in the assay record? inactive

For CC(C)=CCC/C(C)=C/CO , which call appears in the assay record? inactive

For COCCOc1cc2cc(C(=O)NC3CCN(C(C)C)CC3)n(CC(=O)Nc3ccc(Cl)cn3)c2cn1 , which call appears in the assay record? inactive

* * *

read-out: Plasminogen activator inhibitor-1 (PAI1), SERPINE1 (gene 5054); assay: BSK_BE3C_PAI1: BioMAP Diversity Plus: BE3C Assay for Plasminogen activator inhibitor-1 (PAI1) Biomarker Activity (AID 2283037); conditions: primary human bronchial epithelial cells; actives raise or lower the signal
The source made the active and inactive calls. Rule for the calls: active = hit-call score of the fitted dose curve at least 0.9, where 1 is the maximum; inactive = score below 0.9.
Write down one outcome, taken from TRUE = active, FALSE = inactive

Example cases with answers are listed next.
molecule: Cc1ccc(S(=O)(=O)O)cc1C
label class: FALSE
//
molecule: CCc1cc(SCc2sc(-c3ccc(C(F)(F)F)cc3)nc2CN2CCN(c3ccc(OC)cc3)CC2)ccc1OCC(=O)O
label class: TRUE

For CC(C)=CCCC(C)CCO (stereo unspecified) , which call appears in the assay record? FALSE

For CC1=CC(=O)CC(C)(C)C1 , which call appears in the assay record? FALSE

For CC(O)CN(CCN(CC(C)O)CC(C)O)CC(C)O (stereo unspecified) , which call appears in the assay record? FALSE

For CCCCC(CC)COC(=O)CCCCCCCCC(=O)OCC(CC)CCCC (stereo unspecified) , which call appears in the assay record? FALSE

For Cc1[nH]cnc1C[C@H]1CCc2c(C)c3ccccc3n2C1=O , which call appears in the assay record? FALSE

For COc1ccc(-n2nc(C(F)F)cc2-c2ccc(S(C)=O)cc2)cc1 (stereo unspecified) , which call appears in the assay record? FALSE

For COC(=O)c1c(Cl)c(Cl)c(C(=O)OC)c(Cl)c1Cl , which call appears in the assay record? FALSE

For CCCCCCc1ccc(O)cc1O , which call appears in the assay record? TRUE

For CCOC(=O)COc1ccc2c(c1)CC(NCC(O)c1cccc(Cl)c1)CC2 (stereo unspecified) , which call appears in the assay record? FALSE

For Cc1ccc(N)cc1O , which call appears in the assay record? FALSE

For CC(C)CCCCCCOC(=O)c1ccc(C(=O)OCCCCCCC(C)C)c(C(=O)OCCCCCCC(C)C)c1 , which call appears in the assay record? FALSE

For CCN(C(=O)c1cc(C)cc(OC[C@H](C)Nc2ccncc2)c1)C(C)C , which call appears in the assay record? FALSE

For CNS(=O)(=O)c1cc(C(=O)N2CCC(CCN3C4CCC3CC(n3c(C)nc5ccccc53)C4)(c3cccc(F)c3)CC2)c(Cl)cc1F (stereo unspecified) , which call appears in the assay record? FALSE

* * *

read-out: TIMP metallopeptidase inhibitor 2 (TIMP2), TIMP2 (gene 7077); assay: BSK_KF3CT_TIMP2: BioMAP Diversity Plus: KF3CT Assay for TIMP metallopeptidase inhibitor 2 (TIMP2) Biomarker Activity (AID 2283071); details: primary human keratinocytes with fibroblasts; actives raise or lower the signal
The source made the active and inactive calls. Rule for the calls: active = hit-call score of the fitted dose curve at least 0.9, where 1 is the maximum; inactive = score below 0.9.
Write down one outcome, taken from active, inactive

For C=CCCCCCCCCC(=O)O , which call appears in the assay record? inactive

For CC(C)CCCCCCOC(=O)c1ccc(C(=O)OCCCCCCC(C)C)c(C(=O)OCCCCCCC(C)C)c1 , which call appears in the assay record? inactive

* * *

Read-out: Fatty Acid-Binding Protein 1 (FABP1), FABP1 (gene 2168)
Assay: LTEA_HepaRG_FABP1: Life Technologies and Expression Analysis (LTEA) Assay for Fatty Acid-Binding Protein 1 (FABP1) using HepaRG (AID 2283494)
Details: mRNA level, 48 h; actives raise or lower the signal
Protocol: LTEA_HepaRG is a cell based, multiplexed-readout assay that uses HepaRG, a human liver cell line, with measurements taken at 48 hours after chemical dosing on a 96-well plate.LTEA_HepaRG_FABP1 is one of 102 assay component(s) measured in the LTEA HepaRG cell culture assay. It is a marker of Steatosis.Data from the assay component LTEA_HepaRG_FABP1 was analyzed into 1 endpoint. […]
Calls of active or inactive are those of the source. The calls were made as follows: active = hit-call score of the fitted dose curve at least 0.9, where 1 is the maximum; inactive = score below 0.9.
Write down one outcome, taken from active, inactive

Example cases with answers are listed next.
compound: O=c1[nH]c2ccc(S(=O)CCN3CCC(Cc4ccc(F)cc4)CC3)cc2o1 (stereo unspecified)
label class: active
//
compound: CCOC(=O)CC(CC(=O)OCC)(OC(C)=O)C(=O)OCC
label class: inactive
//
compound: O=C(NS(=O)(=O)/C=C/c1ccccc1)c1ccc(F)cc1Cl
label class: active

For On1ccccc1=S , which call appears in the assay record? inactive

For COCCOCCOCCOC , which call appears in the assay record? inactive

For O=C(OC[C@H]1O[C@@H](OC(=O)c2cc(O)c(O)c(OC(=O)c3cc(O)c(O)c(O)c3)c2)[C@H](OC(=O)c2cc(O)c(O)c(OC(=O)c3cc(O)c(O)c(O)c3)c2)[C@@H](OC(=O)c2cc(O)c(O)c(OC(=O)c3cc(O)c(O)c(O)c3)c2)[C@@H]1OC(=O)c1cc(O)c(O)c(OC(=O)c2cc(O)c(O)c(O)c2)c1)c1cc(O)c(O)c(OC(=O)c2cc(O)c(O)c(O)c2)c1 , which call appears in the assay record? active

For NC(=O)NO , which call appears in the assay record? inactive

For CC(C)CCO , which call appears in the assay record? inactive

For CC[C@H](C)C(=O)O[C@H]1C[C@@H](C)C=C2C=C[C@H](C)[C@H](CC[C@@H]3C[C@@H](O)CC(=O)O3)[C@H]21 , which call appears in the assay record? active

For C1=CCCC=CCCC=CCC1 , which call appears in the assay record? inactive

For Nc1nc2ncc(CNc3ccc(C(=O)N[C@@H](CCC(=O)O)C(=O)O)cc3)nc2c(=O)[nH]1 , which call appears in the assay record? inactive

For O=C(O)CCN(C1(C(=O)NO)CCCC1)S(=O)(=O)c1ccc(Oc2ccc(F)cc2)cc1 , which call appears in the assay record? inactive

For CCOCCOCCOCCO , which call appears in the assay record? inactive

For CNS(=O)(=O)c1cc(C(=O)N2CCC(CCN3C4CCC3CC(n3c(C)nc5ccccc53)C4)(c3cccc(F)c3)CC2)c(Cl)cc1F (stereo unspecified) , which call appears in the assay record? active

For CC(C)CCCCCCCOC(=O)CCCCC(=O)OCCCCCCCC(C)C , which call appears in the assay record? inactive

For CCC(C)(C)C(=O)O[C@H]1C[C@@H](C)C=C2C=C[C@H](C)[C@H](CC[C@@H]3C[C@@H](O)CC(=O)O3)[C@H]21 , which call appears in the assay record? active

* * *

experiment: BSK_SAg_PBMCCytotoxicity: PBMC Cytotoxicity Assessment in the BioMAP Diversity Plus: SAg Assay (AID 2283093); details: primary human HUVEC with PBMC;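 further: PBMC viability measured as Alamar Blue reduction fluorescence at 546/580 nm; fitted both ways against DMSO so a hit may be loss or gain of signal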
Calls of active or inactive are those of the source. Rule for the calls: active = hit-call score of the fitted dose curve at least 0.9, where 1 is the maximum; inactive = score below 0.9.
Write down one outcome, taken from active, inactive

smiles: CC[C@H]1CC[C@H](NCc2cc3c(cc2OC)[C@H]2C[C@H]2C(=O)N3C)[C@H](c2ccccc2)N1
label class: inactive
--
smiles: CCNc1ccccc1
label class: inactive
--
smiles: On1ccccc1=S
label class: active

Then there is this compound:
For O=C(O)c1cccc(N(Cc2cccnc2)c2ccc(OC(F)F)c(OC(F)F)c2)c1 , which call appears in the assay record? inactive

* * *

assay: BSK_SAg_SRB: Viability Assessment in the BioMAP Diversity Plus: SAg Assay (AID 2283096); settings: primary human HUVEC with PBMC;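 further: cells read one day after compound addition; hits may be either gain or loss of signal compared with DMSO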
Calls of active or inactive are those of the source. How the source made its calls: active means hit-call score of the fitted dose curve at least 0.9, where 1 is the maximum; inactive means score below 0.9.
Write down one outcome, taken from 1 = active, 0 = inactive

Example cases with answers are listed next.
compound: C[C@](N)(Cc1ccc(O)c(O)c1)C(=O)O
label class: 0
--
compound: Cc1ccc(N)cc1O
label class: 0
--
compound: COc1ccc2sc(C(=O)Nc3nnn[nH]3)c(OC(C)C)c2c1
label class: 1
--
compound: CC(=O)OC[C@H]1O[C@@](COC(C)=O)(O[C@H]2O[C@H](COC(C)=O)[C@@H](OC(C)=O)[C@H](OC(C)=O)[C@H]2OC(C)=O)[C@@H](OC(C)=O)[C@@H]1OC(C)=O
label class: 0
--
compound: CCOc1cccc(-n2cc(C(=O)N3CCN(c4cc(C(=O)O)c5ccccc5c4)CC3)nc2-c2ccc(C)cc2)c1
label class: 1
--
compound: CC(C)CCCCCCOC(=O)c1ccc(C(=O)OCCCCCCC(C)C)c(C(=O)OCCCCCCC(C)C)c1
label class: 0
--
compound: COC(=O)CC(=O)OC
label class: 0
--
compound: Cc1[nH]cnc1C[C@H]1CCc2c(C)c3ccccc3n2C1=O
label class: 1
--
compound: CCCCCCCCCCCCCCCO
label class: 1
--
compound: Cc1ccc(O)cc1
label class: 0

For CCN(C(=O)c1cc(C)cc(OC[C@H](C)Nc2ccncc2)c1)C(C)C , which call appears in the assay record? 0

For CCOCCOCCOCCO , which call appears in the assay record? 0

For CCCCCCCCO , which call appears in the assay record? 0

For CC(C)CC(C)(O)C#CC(C)(O)CC(C)C (stereo not drawn) , which call appears in the assay record? 0

For COCCOc1cc2cc(C(=O)NC3CCN(C(C)C)CC3)n(CC(=O)Nc3ccc(Cl)cn3)c2cn1 , which call appears in the assay record? 0

For NC(=O)NO , which call appears in the assay record? 0

For On1ccccc1=S , which call appears in the assay record? 0

For CCCCC(CC)COC(=O)CCCCCCCCC(=O)OCC(CC)CCCC (stereo not drawn) , which call appears in the assay record? 0
